system: MS2 coat protein; assay: apparent KD of MS2 coat protein; designed switch direction (-1 OFF switch, 1 ON switch): -1; higher = weaker reporter binding; settings: input ligand: FMN 200 uM
Endpoint label: apparent KD of MS2 coat protein (nM)
Form entry: value (nM) — number only.

Solved entries:
residue_codes="GGCCCGCGCGUGAGGAUAUGCUGAUACUAGGAUUAGCAGAAGGCACAUGAGGAUCACCCAUGUCCAACUUGUCU [LRO-BmodExc4-11- Bluer = mod of Colors by Tatyana Zabanova] (Eterna round: R97, puzzle: Brourd's mod of Exclusion 4)" unit_abbreviation=nM recorded_measurement=34.4
residue_codes="AAGAAGAAGUAAGGAUAUGAAGAUCUGGUGGUGACAUGAGGAUCACCCAUGUGAAAACGAUAAGAUCAGAAGGUAUAAGAAGAA [AK ExNG2-3.2] (Eterna round: R96, puzzle: Exclusion NG 2)" unit_abbreviation=nM recorded_measurement=86.8
residue_codes="AAUGAGGGAGGAUAUACAUUCGGCUGUCAACAGCCCUUGGGACAUGAGGAUCACCCAUGUAGAAGGCCCGAUUA [EX2 B.20] (Eterna round: R97, puzzle: Exclusion 2)" unit_abbreviation=nM recorded_measurement=365

Find the recorded apparent KD of MS2 coat protein belonging to AGCGAGACAGGAUAUACUUGAGGAUCACCCAAGUCACAAAGGGUCUCACUCUUCACUAGUAGAAGGGUCGUGUA [Lereer] (Eterna round: R97, puzzle: Exclusion 3) and report it.
24.1

Find the recorded apparent KD of MS2 coat protein belonging to ACAUGAGGAUCACCCAUGUUCGGCUGGUCCGUUUCGGCUGUCGAGGAUAUAGUUCGGUGUCCGCGCUAGAAGGCGGGAGCUGGC [Aenatbe mod 64] (Eterna round: R96, puzzle: Exclusion NG 3) and report it.
167

Find the recorded apparent KD of MS2 coat protein belonging to AGGUGUAGAGGAUAUACUGCAAAGCACAUGAGGAUCACCCAUGUCCCUCUAUGAGAUUAAGUAGAAGGCUACACCA [Omei Ex5 C4] (Eterna round: R97, puzzle: Exclusion 5) and report it.
55.7

###

system: MS2 coat protein; assay: apparent KD of MS2 coat protein; designed switch direction (-1 OFF switch, 1 ON switch): 1; higher = weaker reporter binding; settings: Eterna round: R95; input ligand: microRNA oligo, concentration not stated
Here, each record is paired with measured apparent KD of MS2 coat protein data.
Form entry: value (nM) — number only.

Solved entries:
residue_codes="GGAGCCGGCACUGAGGAUAUUCAUAUUUAAACAUGAGGAUCACCCAUGUAGGCCAGAAGGCCUUGGGAGAAGGCAGGUCGGCUCU [salish99_ss2_r3_077] (puzzle: Same State 2)" measurement_target="MS2 coat protein" endpoint_label="apparent KD of MS2 coat protein" unit_abbreviation=nM recorded_measurement=247
residue_codes="AUAAGUCCGAUGCUCGUCUCUCCGUACAAACAUGAGGAUCACCCAUGUGAUCGGGCAGUAGCCCGAUCAGUAUGGCC [Raedre] (puzzle: Sensor for hsa-mir-208a)" measurement_target="MS2 coat protein" endpoint_label="apparent KD of MS2 coat protein" unit_abbreviation=nM recorded_measurement=23.9
residue_codes="UUCUUACAUGAGGAUCACCCAUGUGUUGUCGUGGGAGGAUAUCCUUGUUCGGUGGCGUUGGGAGAAGGCCUAUGUU [× ×•×ª×• ×ž×“×™× ×” × ×—×ª-20] (puzzle: Same State 1)" measurement_target="MS2 coat protein" endpoint_label="apparent KD of MS2 coat protein" unit_abbreviation=nM recorded_measurement=40.4
residue_codes="CAGCGCUGUCGAGAGGAUAUGCUGUGAUGGACAUGAGGAUCACCCAUGUUAGCGAUAGCAUUACUGUAGAAGGCUCUACAGCUGC [Soteed - 15] (puzzle: Same State 2)" measurement_target="MS2 coat protein" endpoint_label="apparent KD of MS2 coat protein" unit_abbreviation=nM recorded_measurement=10.9

Find the recorded apparent KD of MS2 coat protein belonging to CGUCCAGCCUGAGCUGGACAAAAGCAUGUACAUGAGGAUCACCCAUGUUCAUGUACAAGCUUUUUGCUCGUCUUAUU [salish99_208a_r3_050] (puzzle: Sensor for hsa-mir-208a) and report it.
16.1

###

tested on: MS2 coat protein; assay: apparent KD of MS2 coat protein; designed switch direction (-1 OFF switch, 1 ON switch): 1; higher = weaker reporter binding; conditions: input ligand: microRNA oligo, concentration not stated
Would you please tag the item true (1) when its apparent KD of MS2 coat protein is 30 nM or above, and false (0) when it is below?

residue_codes="CCGAUCUACCGAAAGGUAGAUGGGCUUGUACAUGAGGAUCACCCAUGUCAGUACAAGCUUUUUGCUCCUCUUAUCCU [salish99-hsa-208a-40] (Eterna round: R96, puzzle: Sensor for hsa-mir-208a)" measurement_target="MS2 coat protein" answer_label="false (0)"
residue_codes="GUUACAUGAGGAUCACCCAUGUAUGUGUGGGAGUAAGUGUCUUAGGAUAUCUAUGAUUUAAUUGAAGAGAAGGAAGAUUGUUGU [JMF's solution 84] (Eterna round: R96, puzzle: Same State NG 3)" measurement_target="MS2 coat protein" answer_label="true (1)"
residue_codes="ACAUGAGACUCAGGAUAUGUUGUACCUACAUGUGACAUGAGGAUCACCCAUGUGGUAAGUAUGAUACAGAAGGGAGAGAUAUGU [Equivalance 65 - Jieux - Same State NG 2] (Eterna round: R96, puzzle: Same State NG 2)" measurement_target="MS2 coat protein" answer_label="false (0)"
residue_codes="GUAAUAAAGGAAGGAUAUGGGUAAACGGGAAUCCCAGAAGGUCCACAUGAGGAUCACCCAUGUGGUCCCGAAACCACGGGACCG [Enbive] (Eterna round: R96, puzzle: Same State NG 1)" measurement_target="MS2 coat protein" answer_label="true (1)"
residue_codes="UAGUGUUUGCGAGGAUAUCGUUUGUUGAAGUUACGAGAAGGCGCUCUAAUUACAUGAGGAUCACCCAUGUCUGUGAUGCAUGAU [JR_SSNG1_Sub070] (Eterna round: R96, puzzle: Same State NG 1)" measurement_target="MS2 coat protein" answer_label="true (1)"
residue_codes="UGUUGUAUUACAGGAUAUCUAUGAUUUUUAUCUAGAGAAGGGUAUUCACAUGAGGAUCACCCAUGUAUAUACGAGGAAGUUGUG [JMF's solution 69] (Eterna round: R96, puzzle: Same State NG 1)" measurement_target="MS2 coat protein" answer_label="false (0)"
residue_codes="GAGUAGUUGAUAGGAUAUUGAUUGUUGUAGGAUCAAGAAGGAUCUAACAUGAGGAUCACCCAUGUAGGACUAUUCCUGUGUAUC [Parity 85 - Jieux - Same State NG 1] (Eterna round: R96, puzzle: Same State NG 1)" measurement_target="MS2 coat protein" answer_label="false (0)"
residue_codes="GCUAGAAAUAAUGCCAACAUGAGGAUCACCCAUGUAUGUUGGCAGGAUAUCGUUUGCUUUGCAAACGAGAAGGGCUAAACUAGC [Mat - Same State NG 3 - JL Mod - D7] (Eterna round: R96, puzzle: Same State NG 3)" measurement_target="MS2 coat protein" answer_label="true (1)"
residue_codes="GGAGCCAAGGCAGGAUAUUCAUAUUAAAACAUGAGGAUCACCCAUGUAAAGGCCAGAAGGCCUUUGGAGAAGGGCCAUGGCUCG [Xeonanis - 13 mod14] (Eterna round: R96, puzzle: Same State NG 2)" measurement_target="MS2 coat protein" answer_label="false (0)"
residue_codes="GUGGUCAAUCAAGGAUAUGGAGCCUUAUUGGCUCCAGAAGGUGGGACAUGAGGAUCACCCAUGUGGCAGUGGUAAAAUGACCAC [Fiskers NG1ss - 37] (Eterna round: R96, puzzle: Same State NG 1)" measurement_target="MS2 coat protein" answer_label="true (1)"

Okay, now this sequence:
State whether the measured apparent KD of MS2 coat protein reaches 30 nM, counting equality as reaching it, for UUAUCGCUUGGAGGAUAUCCAACUAUACUAAUUGGAGAAGGCCAAGCUACAGAGCUAAGCUUGGAAGUCACUUCGAAUCAACAC [pwkr ssNG1 F9.3] (Eterna round: R96, puzzle: Same State NG 1)
false (0)

###

test system: MS2 coat protein; experiment: apparent KD of MS2 coat protein; designed switch direction (-1 OFF switch, 1 ON switch): -1; higher = weaker reporter binding; conditions: input ligand: microRNA oligo, concentration not stated
Would you please tag the item yes (1) when its apparent KD of MS2 coat protein is 40 nM or above, and no (0) when it is below?

Here are 3 sequences together with their reported answers.
residue_codes="AAGGGUACUUUCGGAACGACAUGAGGAUCACCCAUGUAGACUGAGGAUAUCUACUACUAAGGACGGGAGAAGGCAGUGUAAUGU [Ex NG3 #76] (Eterna round: R96, puzzle: Exclusion NG 3)" measurement_target="MS2 coat protein" answer_label="no (0)"
residue_codes="UAUAUAUAGUAAGGAUAUGUAUUUAUUUGAUAAACAGAAGGUACUGACAUGAGGAUCACCCAUGUUUUAGUGUGGGCAUGUAGA [JMF's solution 20] (Eterna round: R96, puzzle: Exclusion NG 1)" measurement_target="MS2 coat protein" answer_label="yes (1)"
residue_codes="AUUUAAUUUAAUAAGAUCACAUGAGGAUCACCCAUGUUAUAAUAGGAUAUCAGCUCGUUUAGAGCUGAGAAGGAUUAUAACAUG [ExNG3/9-A2] (Eterna round: R96, puzzle: Exclusion NG 3)" measurement_target="MS2 coat protein" answer_label="no (0)"

State whether the measured apparent KD of MS2 coat protein reaches 40 nM, counting equality as reaching it, for ACGCAUUGCCUUUGGUAGUGCGUUACAUGAGGAUCACCCAUGUAGGAUAUGGUAGGCAAAGCUUACCAGAAGGACAUGAUAAUU [Mat - Exclusion NG 3 - Mod of JL - D5] (Eterna round: R96, puzzle: Exclusion NG 3)
yes (1)

State whether the measured apparent KD of MS2 coat protein reaches 40 nM, counting equality as reaching it, for GCCAAUGACUGAGGAUAUGCUUAUAGACAUGAGGAUCACCCAUGUAAAUGGGACAUGUCAAACCAGCAGAAGGCAGGACCUGGC [Arused] (Eterna round: R96, puzzle: Exclusion NG 2)
yes (1)
